target: c-kit mutant D816V (Homo sapiens, UniProt P10721, D816V/DEL694-753); construct: residues 551-934, kinase insertion domain residues 694-753 deleted; 6x-histidine (N); made in house; host or cells: E. coli Arctic Express (DE3) RIL (Stratagene); assay: c-Kit mutant D816V biochemical assay, AlphaScreen; settings: c-kit D816V biochemical inhibitory activity; read-out: Biochemical activity (IC50 μM) Kit D816V
Sequence (P10721 with tags, fused parts or gaps DEL694-753/D816V): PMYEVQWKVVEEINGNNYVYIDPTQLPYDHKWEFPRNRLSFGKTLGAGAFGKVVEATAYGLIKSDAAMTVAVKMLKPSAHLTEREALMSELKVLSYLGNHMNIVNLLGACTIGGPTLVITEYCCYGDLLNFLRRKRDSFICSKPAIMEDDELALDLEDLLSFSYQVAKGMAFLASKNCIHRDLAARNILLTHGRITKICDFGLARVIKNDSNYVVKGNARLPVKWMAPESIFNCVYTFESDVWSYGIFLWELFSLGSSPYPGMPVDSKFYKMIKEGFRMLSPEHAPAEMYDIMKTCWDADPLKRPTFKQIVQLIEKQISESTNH
Measured property: IC50

Before answering, review these 3 worked examples.
{"columns": ["Compound", "Assay target", "IC50"],
 "data": [
  ["C[C@H](NC(=O)N1CCN(c2ncnc3[nH]c(-c4ccc(C#N)cc4)cc23)C[C@H]1C)c1ccc(F)cc1", "c-kit mutant D816V (Homo sapiens, UniProt P10721, D816V/DEL694-753)", "0.0001 to 1 µM"],
  ["COc1cccc([C@H](C)NC(=O)N2CCN(c3ncnc4[nH]c(-c5ccc(C#N)cc5)cc34)CC2)c1", "c-kit mutant D816V (Homo sapiens, UniProt P10721, D816V/DEL694-753)", "0.0001 to 1 µM"],
  ["COc1cc2c(-c3ccc(NS(=O)(=O)C4CC4)cc3F)ncnc2cc1OCCCN1CCCCC1", "c-kit mutant D816V (Homo sapiens, UniProt P10721, D816V/DEL694-753)", "0.0001 to 1 µM"]
]}

Incoming: Item: `O=C(NCc1ccc(F)cc1)N1CCN(c2ncnc3[nH]c(-c4cccnc4)cc23)CC1` Test system: c-kit mutant D816V (Homo sapiens, UniProt P10721, D816V/DEL694-753) Read-out: IC50 Value: ?
Outgoing: 1 to 10 µM

Incoming: Hello, I am looking for reported IC50 with c-kit mutant D816V (Homo sapiens, UniProt P10721, D816V/DEL694-753) for `CCCCS(=O)(=O)Nc1ccc(-c2cc3c(-c4ccc(NS(=O)(=O)CCCC)cc4)ncnc3[nH]2)cc1` . Could you help?
Outgoing: 0.0001 to 1 µM

Incoming: # get_value(readout= IC50, system= c-kit mutant D816V (Homo sapiens, UniProt P10721, D816V/DEL694-753)) for `O=C(NCc1ccc(F)cc1)N1CCN(c2ncnc3[nH]c(-c4ccncc4)cc23)CC1`
Outgoing: 0.0001 to 1 µM

Incoming: Lab note: need IC50 with c-kit mutant D816V (Homo sapiens, UniProt P10721, D816V/DEL694-753) for entry `COc1ccc(CCNC(=O)N2CCN(c3ncnc4[nH]ccc34)CC2)cc1` , please look it up.
Outgoing: 10 to 200 µM

Incoming: Provide the documented IC50 with c-kit mutant D816V (Homo sapiens, UniProt P10721, D816V/DEL694-753) as the system for `CCc1ccc(S(=O)(=O)Nc2ccc(-c3ncnc4[nH]c(C)cc34)cc2)cc1`
Outgoing: 0.0001 to 1 µM

Incoming: API: value(readout= IC50, system= c-kit mutant D816V (Homo sapiens, UniProt P10721, D816V/DEL694-753), query= `Cc1cc2c(-c3ccc(NS(=O)(=O)c4ccc(C(F)(F)F)nc4)cc3)ncnc2[nH]1` )
Outgoing: 1 to 10 µM

Incoming: Given the entry `O=S(=O)(Nc1ccc(-c2ncnc3[nH]c(-c4ccc(F)cc4)cc23)cc1)c1ccc(F)cc1` , what IC50 was observed with c-kit mutant D816V (Homo sapiens, UniProt P10721, D816V/DEL694-753)?
Outgoing: 0.0001 to 1 µM
